# assayName: Absorption and fluorescence photophysical characterization in organic solvents
# Assay type: physicochemical
# conditionNotes: methanol (MeOH)
molar absorption coefficient (ε) for assorted compounds
State just the number; it will be interpreted in M⁻¹ cm⁻¹.

input: Determine its reported molar absorption coefficient (ε): "CC1(C)C(=CC2=C([O-])C(=CC3=[N+](CCCc4ccccc4)c4ccccc4C3(C)C)C2=O)N(CCCc2ccccc2)c2ccccc21"
output: 422000

input: Determine its reported molar absorption coefficient (ε): "CC1(C)C(=CC2=C(NCc3ccc4ccc5cccc6ccc3c4c56)C(=CC3=[N+](CCCc4ccccc4)c4ccccc4C3(C)C)C2=O)N(CCCc2ccccc2)c2ccccc21.[I-]"
output: 285000

input: Determine its reported molar absorption coefficient (ε): "CNC1=C(C=C2N(CCCc3ccccc3)c3ccccc3C2(C)C)C(=O)C1=CC1=[N+](CCCc2ccccc2)c2ccccc2C1(C)C.[I-]"
output: 174000

input: Determine its reported molar absorption coefficient (ε): "CC1(C)C(=CC2=C(N)C(=CC3=[N+](CCCc4ccccc4)c4ccccc4C3(C)C)C2=O)N(CCCc2ccccc2)c2ccccc21.[I-]"
output: 303000
